# study target: gEgI mutant (338): HSV2 gEgI mutant heterodimer comprising gE and gI ectodomains with insertion of a (HSV2, UniProt P89475 21-416; P06764 21-256)
# assay details: ELISA, supernatant

{"binder": "mAb clone 34 (antibody, V domains shown) VH: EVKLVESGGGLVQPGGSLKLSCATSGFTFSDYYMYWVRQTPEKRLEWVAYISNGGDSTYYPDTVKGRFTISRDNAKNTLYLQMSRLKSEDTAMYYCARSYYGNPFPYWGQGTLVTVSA VL: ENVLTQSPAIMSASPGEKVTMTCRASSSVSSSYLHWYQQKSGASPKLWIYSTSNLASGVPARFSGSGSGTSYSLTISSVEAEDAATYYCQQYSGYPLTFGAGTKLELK", "binding result": "binds"}
{"binder": "mAb clone 24 (antibody, V domains shown) VH: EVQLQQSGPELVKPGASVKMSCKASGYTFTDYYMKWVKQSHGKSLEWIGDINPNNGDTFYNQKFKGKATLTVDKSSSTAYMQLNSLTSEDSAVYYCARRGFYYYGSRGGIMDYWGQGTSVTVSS VL: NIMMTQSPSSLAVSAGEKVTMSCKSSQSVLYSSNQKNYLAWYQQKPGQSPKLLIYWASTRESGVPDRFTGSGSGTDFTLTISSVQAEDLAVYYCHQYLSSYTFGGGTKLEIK", "binding result": "binds"}
{"binder": "mAb clone 20 (antibody, V domains shown) VH: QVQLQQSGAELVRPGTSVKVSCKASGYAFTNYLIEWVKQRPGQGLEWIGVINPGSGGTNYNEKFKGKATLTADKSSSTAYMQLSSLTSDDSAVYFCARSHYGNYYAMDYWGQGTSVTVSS VL: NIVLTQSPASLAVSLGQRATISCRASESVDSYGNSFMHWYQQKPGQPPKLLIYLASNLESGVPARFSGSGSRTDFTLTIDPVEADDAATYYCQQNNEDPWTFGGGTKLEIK", "binding result": "binds"}

Values were extracted from patent US20230331820A1.
